Test system: ragweed (common ragweed, Ambrosia elatior)
assay overview: Test A preemergence
Assay type: in vivo
condition info: Ambrosia artemisiifolia, pre-emergence, 240 h, Preemergence, 125 g ai/ha; 0 to 100 scale (0 no effect, 100 complete control); read-out: Plant response rating, Ragweed
result type: pest or weed control at 125 g/ha (%)
Write the value in % as a bare number.

compound	measured on	result type	unit symbol	observed measurement
CN1C[C@H](c2ccc(C(F)(F)F)cc2)[C@@H](C(=O)Nc2cccc(C#N)c2F)C1=O	ragweed (common ragweed, Ambrosia elatior)	pest or weed control at 125 g/ha	%	70

QUERY: Read off the recorded pest or weed control at 125 g/ha for `CN1C[C@H](c2ccc3c(c2)OC(F)(F)O3)[C@@H](C(=O)Nc2ccc(F)nc2F)C1=O`
RESULT: 80

QUERY: Specify measured pest or weed control at 125 g/ha for `Cc1cc(F)cc([C@H]2CNC(=O)[C@@H]2C(=O)Nc2cccc(F)c2F)c1` .
RESULT: 40

QUERY: Recall and state the measured pest or weed control at 125 g/ha for `CN1C[C@H](c2ccc(Cl)cc2)[C@@H](C(=O)Nc2cccc(F)n2)C1=O` .
RESULT: 60

QUERY: In one line, give reported pest or weed control at 125 g/ha of the entry CN1C[C@H](c2csc3c2CCC(F)(F)C3)[C@@H](C(=O)Nc2ccc(F)c(F)c2F)C1=O (racemic) .
RESULT: 0

QUERY: Give pest or weed control at 125 g/ha for `CN1C[C@H](c2ccc(C(F)(F)F)cc2)[C@@H](C(=O)Nc2cccnc2F)C1=O`
RESULT: 60
